System: L1210 leukemia ip in BDF1 mice, survival T/C
assay.explanation: NCI In Vivo Anticancer Drug Screen. Data for tumor model L1210 Leukemia (intraperitoneal) in B6D2F1 (BDF1) mice
condition.info: endpoint: mean survival time; dose: 400.0 mg/kg/injection; schedule: Q04DX002 (ip); vehicle: saline; higher = longer survival
Toxic doses and inconclusive results are not listed.
metric: T/C

| compound.structure.string | study.system | T/C |
| --- | --- | --- |
| O=C(O)CSC(SCC(=O)O)c1ccc(Cl)cc1Cl | L1210 leukemia ip in BDF1 mice, survival T/C | 119 % of control |
| Nc1ccc(F)c(Cl)c1 | L1210 leukemia ip in BDF1 mice, survival T/C | 105 % of control |
| O=C(NCCO)Nc1ccccc1Cl | L1210 leukemia ip in BDF1 mice, survival T/C | 100 % of control |
| C[N+]1=NN(c2nc[nH]c2C(N)=O)CC1 | L1210 leukemia ip in BDF1 mice, survival T/C | 115 % of control |

Record lookup: for L1210 leukemia ip in BDF1 mice, survival T/C, what T/C belongs to `CCS(=O)CC` ? 95 % of control

Record lookup: for L1210 leukemia ip in BDF1 mice, survival T/C, what T/C belongs to `CN(C)S(=O)(=O)Oc1ccc(S(=O)(=O)F)cc1Cl` ? 112 % of control

Record lookup: for L1210 leukemia ip in BDF1 mice, survival T/C, what T/C belongs to `Cc1ccc2nc(-c3ccc(N)cc3)sc2c1S(=O)(=O)O` ? 99 % of control

Record lookup: for L1210 leukemia ip in BDF1 mice, survival T/C, what T/C belongs to `Clc1ccc(Cl)nn1` ? 87 % of control

Record lookup: for L1210 leukemia ip in BDF1 mice, survival T/C, what T/C belongs to `Cc1cc(-c2ccccc2O)nc(N)n1` ? 90 % of control

Record lookup: for L1210 leukemia ip in BDF1 mice, survival T/C, what T/C belongs to `CCCCNC(N)=O` ? 92 % of control

====

Listed below: T/C values for each entry.
Test system: L1210 leukemia ip in BDF1 mice, survival T/C
assay.explanation: NCI In Vivo Anticancer Drug Screen. Data for tumor model L1210 Leukemia (intraperitoneal) in B6D2F1 (BDF1) mice
condition.info: endpoint: mean survival time; dose: 400.0 mg/kg/injection; schedule: Q01DX009 (ip); vehicle: saline with Tween-80; higher = longer survival
Inconclusive results and toxic doses are left out.

For the molecule shown here, `CC(C)=CC(=O)O` , give the reported T/C. 104 % of control

For the molecule shown here, CC(=O)OC1CCC2(C)C(CCC3C2C(=O)C(OC(C)=O)C2(C)C3CC3OC4(CCC(C)CO4)C(C)C32)C1 (stereo not drawn) , give the reported T/C. 101 % of control

For the molecule shown here, `CN(C)Cc1cc(C(C)(C)C)cc(C2CCCCC2)c1O` , give the reported T/C. 107 % of control

For the molecule shown here, CCCCCCC(C)O[Si](C)c1ccc(C)cc1 (stereo not drawn) , give the reported T/C. 97 % of control

====

Tested on: L1210 leukemia ip in BDF1 mice, survival T/C
assay.explanation: NCI In Vivo Anticancer Drug Screen. Data for tumor model L1210 Leukemia (intraperitoneal) in B6D2F1 (BDF1) mice
condition.info: endpoint: mean survival time; dose: 100.0 mg/kg/injection; schedule: Q01DX001 (ip); vehicle: Klucel (hydroxypropylcellulose) (HPC); higher = longer survival
Inconclusive results and toxic doses are left out.
Listed below: T/C values for each entry.

| molecule | T/C |
| --- | --- |
| O=c1c(N=Nc2ccc(Cl)cc2)c(O)n(-c2ccc(Cl)cc2)c(=S)n1-c1ccccc1 | 94 % of control |
| O=C(CNCc1ccccc1)c1ccc(Cl)cc1 | 96 % of control |
| CC(=O)Nc1ccc(S(=O)(=O)CO)cc1 | 102 % of control |
| CC1CC(C)(C)N/C(=C/C(=O)N2Cc3cc4ccccc4nc3C2)O1 (stereo not drawn) | 86 % of control |
| Nc1nc(N)c(CCCOc2ccc(NC(=O)c3cc(S(=O)(=O)F)ccc3Cl)cc2)c(N)n1 | 99 % of control |
| CCCN(CCC)c1ccc(/C=C\c2ccncc2)cc1 | 98 % of control |
| CC(/C=N/O)=C1C=CC=C1 | 94 % of control |

Let us examine a further case.
For the molecule shown here, `O=C(CCCOc1ccccc1)NCc1ccccc1[N+](=O)[O-]` , give the reported T/C. 92 % of control

====

Tested on: L1210 leukemia ip in BDF1 mice, survival T/C
assay.explanation: NCI In Vivo Anticancer Drug Screen. Data for tumor model L1210 Leukemia (intraperitoneal) in B6D2F1 (BDF1) mice
condition.info: endpoint: mean survival time; dose: 400.0 mg/kg/injection; schedule: Q04DX002 (ip); vehicle: Klucel (hydroxypropylcellulose) (HPC); higher = longer survival
Toxic doses and inconclusive results are not listed.
metric: T/C

Here are 10 compounds together with their reported answers.
| compound | T/C |
| --- | --- |
| Cc1ccc(C(=O)/C=C/c2ccco2)c(C)c1 | 99 % of control |
| COC1CCC(CCNC(N)=O)CC1OC (stereo not drawn) | 90 % of control |
| O=C(O)COc1ccc(F)cn1 | 114 % of control |
| CC1(c2ccc3ccccc3c2)OCC2(CCC2)CO1 | 107 % of control |
| O=[N+]([O-])c1ccc(N2N=NC3CC/C(=C\c4cccs4)C32N2CCOCC2)cc1 (stereo not drawn) | 90 % of control |
| O=C(O)COc1c(Cl)cc(Cl)cc1Cl | 96 % of control |
| Cc1ccc(NC(=S)Nc2ccc(C(C)C)cc2)c(C)c1 | 100 % of control |
| CCCCNC(=O)OCc1cnc(C)n1Cc1ccccc1 | 94 % of control |
| CCN(CC)Cc1ccccc1COC(=O)c1ccc(Br)cc1 | 101 % of control |
| NC(=O)C1CCN(C(=O)Nc2cc(C(F)(F)F)ccc2Cl)CC1 | 100 % of control |

Record lookup: for L1210 leukemia ip in BDF1 mice, survival T/C, what T/C belongs to `O=C(/C=C(\C(=O)c1ccccc1)c1ccccc1)c1ccc(-c2ccccc2)cc1` ? 93 % of control

Record lookup: for L1210 leukemia ip in BDF1 mice, survival T/C, what T/C belongs to `CC(=O)N(c1ccccc1)c1ccccc1` ? 112 % of control

Record lookup: for L1210 leukemia ip in BDF1 mice, survival T/C, what T/C belongs to `O=C(O)COc1ccccc1C(=O)O` ? 103 % of control

====

Test system: L1210 leukemia ip in BDF1 mice, survival T/C
assay.explanation: NCI In Vivo Anticancer Drug Screen. Data for tumor model L1210 Leukemia (intraperitoneal) in B6D2F1 (BDF1) mice
condition.info: endpoint: mean survival time; dose: 400.0 mg/kg/injection; schedule: Q01DX009 (ip); vehicle: other; higher = longer survival
Method: The antitumor activity of compounds was measured in mice bearing transplantable tumors. Survival or tumor size were measured and the results are expressed as the measurement made in the treated group (T) divided by the measurement made in the vehicle treated control group (C). The tumor model used in this assay is L1210 Leukemia (intraperitoneal) in B6D2F1 (BDF1) mice
Inconclusive results and toxic doses are left out.
Listed below: T/C values for each entry.

Here are 5 molecules together with their reported answers.
| molecule | metric | assay.result |
| --- | --- | --- |
| CC(=O)Oc1cc2c(cc1OC(C)=O)C(Br)CCCC2=O (stereo unspecified) | T/C | 104 % of control |
| Cc1ccc(NC(=O)Oc2ccccc2F)cc1NC(=O)Oc1ccccc1F | T/C | 94 % of control |
| Cc1ccc(C(C)C)cc1NC(=O)c1cccc([N+](=O)[O-])c1 | T/C | 98 % of control |
| O=[N+]([O-])c1ccc2c(c1)CCCC2 | T/C | 116 % of control |
| CN1CCOC1=Nc1cccc2c1CCCC2 | T/C | 95 % of control |

Let us examine a further case.
For the molecule shown here, `CCOC(CCc1c(-c2ccccc2)nc(N)[nH]c1=O)OCC` , give the reported T/C. 93 % of control

====

Test system: L1210 leukemia ip in BDF1 mice, survival T/C
assay.explanation: NCI In Vivo Anticancer Drug Screen. Data for tumor model L1210 Leukemia (intraperitoneal) in B6D2F1 (BDF1) mice
condition.info: endpoint: mean survival time; dose: 100.0 mg/kg/injection; schedule: Q01DX001 (ip); vehicle: saline; higher = longer survival
Toxic doses and inconclusive results are not listed.
metric: T/C

Here are 5 compounds together with their reported answers.
| compound | assay.result |
| --- | --- |
| Cc1[nH]ccc2c(C)c3nc4ccccc4c3cc12 | 112 % of control |
| Cc1cc(=O)n(CC(=O)O)c2ccccc12 | 100 % of control |
| O=C1NN=C(c2ccccc2)C1Cc1ccccc1 (configuration not stated) | 94 % of control |
| C[N+](C)(C)CCC[N+]1(C)CCC2(CCCC(C(F)(F)F)C2)CC1 (configuration not stated) | 104 % of control |
| O=S(=O)(c1cc(Br)ccc1O)c1cc(Br)ccc1O | 97 % of control |

Record lookup: for L1210 leukemia ip in BDF1 mice, survival T/C, what T/C belongs to `O=[N+]([O-])c1cccc(/C=C\C=C\c2ccccc2)c1` ? 103 % of control

Record lookup: for L1210 leukemia ip in BDF1 mice, survival T/C, what T/C belongs to `O=S(=O)(O)CBr` ? 107 % of control
